- TEST SYSTEM: ABCG2 (Homo sapiens, UniProt Q9UNQ0)
- Sequence (Q9UNQ0 whole entry): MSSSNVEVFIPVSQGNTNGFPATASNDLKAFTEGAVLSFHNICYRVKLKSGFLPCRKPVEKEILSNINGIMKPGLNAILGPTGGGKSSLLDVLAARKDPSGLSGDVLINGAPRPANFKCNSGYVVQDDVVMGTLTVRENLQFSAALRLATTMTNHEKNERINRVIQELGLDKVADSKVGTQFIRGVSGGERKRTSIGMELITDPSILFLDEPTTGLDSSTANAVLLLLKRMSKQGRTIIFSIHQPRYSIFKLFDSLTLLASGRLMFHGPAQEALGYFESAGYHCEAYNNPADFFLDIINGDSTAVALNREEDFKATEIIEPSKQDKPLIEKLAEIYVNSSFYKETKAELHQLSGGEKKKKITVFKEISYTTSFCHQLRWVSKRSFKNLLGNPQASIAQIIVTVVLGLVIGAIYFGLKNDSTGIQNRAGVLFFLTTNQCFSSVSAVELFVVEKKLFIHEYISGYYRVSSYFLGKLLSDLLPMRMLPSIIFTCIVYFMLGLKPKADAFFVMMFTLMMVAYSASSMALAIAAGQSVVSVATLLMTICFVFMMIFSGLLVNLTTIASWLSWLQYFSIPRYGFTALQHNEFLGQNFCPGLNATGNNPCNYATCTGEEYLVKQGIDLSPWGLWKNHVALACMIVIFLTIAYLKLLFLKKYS
- TEST SUMMARY: TP_TRANSPORTER: inhibition of E1S uptake by Doxorubicin at a concentration of 1000uM in membrane vesicles from ABCG2-expressing P388 cells
- Format: functional, cell membranes, Membrane vesicle
- Design: scale not given: the % may be the effect or the level left
- CONDITION CONTEXT: mouse, probe E1S, read-out: Activity
REPORTED METRIC: activity at 1000 µM (%)
Give bare numbers, in %.

Query activity at 1000 µM on ABCG2 (Homo sapiens, UniProt Q9UNQ0) for "COc1cccc2c1C(=O)c1c(O)c3c(c(O)c1C2=O)C[C@@](O)(C(=O)CO)C[C@@H]3O[C@H]1C[C@H](N)[C@H](O)[C@H](C)O1" 72

* * *

- TEST SYSTEM: ABCG2 (Homo sapiens)
- TEST SUMMARY: TP_TRANSPORTER: inhibition of E1S uptake by Estrone at a concentration of 200uM in membrane vesicles from ABCG2-expressing P388 cells
- Type: functional, cell membranes, Membrane vesicle
- Parameters: scale not given: the % may be the effect or the level left
- CONDITION CONTEXT: mouse, probe E1S, read-out: Activity
REPORTED METRIC: activity at 200 µM

Value lookup for activity at 200 µM; key = "C[C@]12CC[C@@H]3c4ccc(O)cc4CC[C@H]3[C@@H]1CCC2=O" 56%

* * *

- TEST SYSTEM: ABCG2 (Homo sapiens, UniProt Q9UNQ0)
- TEST SUMMARY: TP_TRANSPORTER: inhibition of E1S uptake by 4-Methylumbelliferone glucuronide at a concentration of 500uM in membrane vesicles from ABCG2-expressing P388 cells
- Assay type: functional, cell membranes, Membrane vesicle
- Parameters: scale not given: the % may be the effect or the level left
- CONDITION CONTEXT: mouse, probe E1S, read-out: Activity
REPORTED METRIC: activity at 500 µM (%)
One number for each entry, in %.

Value lookup for activity at 500 µM; key = "O=C(O)[C@H]1O[C@@H](OCc2cc(=O)oc3cc(O)ccc23)[C@H](O)[C@@H](O)[C@@H]1O" 84

* * *

- TEST SYSTEM: ABCG2 (Homo sapiens, UniProt Q9UNQ0)
- TEST SUMMARY: TP_TRANSPORTER: inhibition of E1S uptake by Pravastatin at a concentration of 200uM in membrane vesicles from ABCG2-expressing P388 cells
- Format: functional, cell membranes, Membrane vesicle
- Design: scale not given: the % may be the effect or the level left
- CONDITION CONTEXT: mouse, probe E1S, read-out: Activity
REPORTED METRIC: activity at 200 µM (%)
Give bare numbers, in %.

Value lookup for activity at 200 µM; key = "CC[C@H](C)C(=O)O[C@H]1C[C@H](O)C=C2C=C[C@H](C)[C@H](CC[C@@H](O)C[C@@H](O)CC(=O)O)[C@H]21" 76

* * *

- TEST SYSTEM: ABCG2 (Homo sapiens, UniProt Q9UNQ0)
- TEST SUMMARY: TP_TRANSPORTER: inhibition of E1S uptake by 2.4-dinitrophenyl-S-glutathione at a concentration of 80uM in membrane vesicles from ABCG2-expressing P388 cells
- Assay type: functional, cell membranes, Membrane vesicle
- Set-up: scale not given: the % may be the effect or the level left
- CONDITION CONTEXT: mouse, probe E1S, read-out: Activity
REPORTED METRIC: activity at 80 µM (%)
One number for each entry, in %.

Value lookup for activity at 80 µM; key = "N[C@@H](CCC(=O)N[C@H](CSc1ccc([N+](=O)[O-])cc1[N+](=O)[O-])C(=O)NCC(=O)O)C(=O)O" 78
